Source: ChEMBL document CHEMBL3045404

test system: Rhizoctonia solani; test: Antifungal activity against Rhizoctonia solani infested in rice seedling incubated for 40 hr in moist chamber followed by incubation for 3 days in greenhouse conditions; assay type: functional, organism-based
pEC50: −log10 of the molar value.
We use 3 as the dividing line for pEC50: on or above the line is 1.0, below is 0.0.

A selection of reference data follows.
>>> df
                                   compound  class
0        CCOc1c(NC(=O)c2cccnc2Cl)cccc1C(C)C    1.0
1       CC1(C)Oc2cccc(NC(=O)c3cccnc3Cl)c2O1    1.0
2             CCc1c(C)cccc1NC(=O)c1cccnc1Cl    1.0
3  CC1OC(C)(C)c2cccc(NC(=O)c3cccnc3Cl)c21 (stereo not drawn)    1.0
4             O=C(Nc1cccc2c1OCC2)c1cccnc1Cl    0.0
5             O=C(Nc1cccc2c1CCC2)c1cccnc1Cl    1.0
6      CC1(C)CCc2cccc(NC(=O)c3cccnc3Cl)c2O1    0.0
7  CCC1(C)Oc2c(NC(=O)c3cccnc3Cl)cccc2C(C)O1 (stereo not drawn)    1.0

Request: Hello, I need to know if CCC1OC(C)(C)c2cccc(NC(=O)c3cccnc3Cl)c21 (stereo not drawn) has measured pEC50 not below 3. Thanks!
Response: 1.0

Request: Hello, I need to know if CC1OCc2cccc(NC(=O)c3cccnc3Cl)c21 (stereo not drawn) has measured pEC50 not below 3. Thanks!
Response: 1.0

Request: Hello, I need to know if CCC1CC(C)(C)c2cccc(NC(=O)c3cccnc3Cl)c21 (stereo not drawn) has measured pEC50 not below 3. Thanks!
Response: 1.0

====

system: Botrytis cinerea; experiment: Antifungal activity against Botryotinia fuckeliana infested in cucumber seedling cotyledons after 4 days by pot test; assay type: functional
Here, each record is paired with measured pEC90 data.
Response field accepts a number only; no unit should be typed.

Example cases with answers are listed next.
In [3]: df
Out[3]:
                                   molecule  value_reported
0  CCC1CC(C)(CC)c2cccc(NC(=O)c3cccnc3Cl)c21 (configuration not stated)            4.58
1  CC1CC(C)(C)c2cccc(NC(=O)c3cccnc3Cl)c21 (configuration not stated)             4.7
2  CCC1CC(C)(C)c2cccc(NC(=O)c3cccnc3Cl)c21 (configuration not stated)            4.75
3                  O=C(Nc1ccccc1)c1cccnc1Cl             2.2

Request: Fill blank: measured pEC90 of the molecule "O=C(Nc1cccc2c1CCC2)c1cccnc1Cl" is ____.
Response: 2.68

Request: Fill blank: measured pEC90 of the molecule CC1CCc2c(NC(=O)c3cccnc3Cl)cccc21 (configuration not stated) is ____.
Response: 3.03

====

tested on: Botrytis cinerea; test: Antifungal activity against Botryotinia fuckeliana infested in cucumber seedling cotyledons after 4 days by pot test; type: functional
We use 3 as the dividing line for pEC90: on or above the line is true (1), below is false (0).

A selection of reference data follows.
In [3]: df
Out[3]:
                               compound      class
0     O=C(Nc1ccccc1-c1ccccc1)c1cccnc1Cl  false (0)
1            CCc1ccccc1NC(=O)c1cccnc1Cl  false (0)
2   CC1(C)Cc2cccc(NC(=O)c3cccnc3Cl)c2O1   true (1)
3  CC1(C)OCc2cccc(NC(=O)c3cccnc3Cl)c2O1   true (1)
4      CC(C)Oc1cccc(NC(=O)c2cccnc2Cl)c1  false (0)
5         CC(C)c1ccccc1NC(=O)c1cccnc1Cl   true (1)

Request: Hello, I need to know if "CC1(C)CCc2cccc(NC(=O)c3cccnc3Cl)c2O1" has measured pEC90 not below 3. Thanks!
Response: true (1)

Request: Hello, I need to know if CCC1OC(C)(C)c2cccc(NC(=O)c3cccnc3Cl)c21 (stereo unspecified) has measured pEC90 not below 3. Thanks!
Response: true (1)

Request: Hello, I need to know if "CCOc1cccc(NC(=O)c2cccnc2Cl)c1" has measured pEC90 not below 3. Thanks!
Response: false (0)

Request: Hello, I need to know if "CCOc1c(NC(=O)c2cccnc2Cl)cccc1C(C)C" has measured pEC90 not below 3. Thanks!
Response: true (1)

Request: Hello, I need to know if CC1Cc2cccc(NC(=O)c3cccnc3Cl)c2C1 (stereo unspecified) has measured pEC90 not below 3. Thanks!
Response: true (1)

====

tested on: Rhizoctonia solani; experiment: Antifungal activity against Rhizoctonia solani infested in rice seedling incubated for 40 hr in moist chamber followed by incubation for 3 days in greenhouse conditions; format: functional, organism-based
pEC50: −log10 of the molar value.
We use 3 as the dividing line for pEC50: on or above the line is MET, below is NOT MET.

                                   molecule    class
0       CC1(C)Cc2cccc(NC(=O)c3cccnc3Cl)c2O1      MET
1       CC1(C)CCc2c(NC(=O)c3cccnc3Cl)cccc21      MET
2  CCCCC1(CC)Cc2cccc(NC(=O)c3cccnc3Cl)c2O1 (configuration not stated)  NOT MET

Request: Hello, I need to know if CC1Oc2cccc(NC(=O)c3cccnc3Cl)c2C1C (configuration not stated) has measured pEC50 not below 3. Thanks!
Response: MET

Request: Hello, I need to know if "Cc1oc2cccc(NC(=O)c3cccnc3Cl)c2c1C" has measured pEC50 not below 3. Thanks!
Response: MET

Request: Hello, I need to know if "CC(C)c1ccccc1NC(=O)c1cccnc1Cl" has measured pEC50 not below 3. Thanks!
Response: NOT MET

Request: Hello, I need to know if CCC1CC(C)(CC)c2cccc(NC(=O)c3cccnc3Cl)c21 (configuration not stated) has measured pEC50 not below 3. Thanks!
Response: MET

Request: Hello, I need to know if "O=C(Nc1ccccc1-c1ccccc1)c1cccnc1Cl" has measured pEC50 not below 3. Thanks!
Response: NOT MET

====

test system: Botrytis cinerea; assay: Antifungal activity against Botryotinia fuckeliana infested in cucumber seedling cotyledons after 4 days by pot test; type: functional
observable: pEC90
Response field accepts a number only; no unit should be typed.

Example cases with answers are listed next.
>>> print(df.to_string())
                                   compound  value_reported
0       CC1(C)CCc2c(NC(=O)c3cccnc3Cl)cccc21            2.97
1  CC1SCc2cccc(NC(=O)c3cccnc3Cl)c21 (stereo not given)            2.93
2               CCOc1ccccc1NC(=O)c1cccnc1Cl            2.48

Request: Fill blank: measured pEC90 of the compound CCCCC1(CC)Cc2cccc(NC(=O)c3cccnc3Cl)c2O1 (stereo not given) is ____.
Response: 3.04

====

system: Rhizoctonia solani; test: Antifungal activity against Rhizoctonia solani infested in rice seedling incubated for 40 hr in moist chamber followed by incubation for 3 days in greenhouse conditions; type: functional, organism-based
Label key: yes means EC50 under 1000 µM; no means EC50 of 1000 µM or more.

A selection of reference data follows.
>>> df
                                   compound  class
0  CC1SCc2cccc(NC(=O)c3cccnc3Cl)c21 (centres undefined)    yes
1            C=C(C)c1ccccc1NC(=O)c1cccnc1Cl     no
2    CCC1(CC)CCc2cccc(NC(=O)c3cccnc3Cl)c2O1     no

We now examine a further compound.
Request: Does the reported EC50 of "CC(C)Oc1cccc(NC(=O)c2cccnc2Cl)c1" stay below 1000 µM?
Response: yes

====

tested on: Botrytis cinerea; experiment: Antifungal activity against Botryotinia fuckeliana infested in cucumber seedling cotyledons after 4 days by pot test; format: functional
We use 4 as the dividing line for pEC90: on or above the line is fulfilled, below is not fulfilled.

Request: Hello, I need to know if CC1Oc2cccc(NC(=O)c3cccnc3Cl)c2C1C (stereo unspecified) has measured pEC90 not below 4. Thanks!
Response: not fulfilled

Request: Hello, I need to know if CCC1(C)Oc2c(NC(=O)c3cccnc3Cl)cccc2C(C)O1 (stereo unspecified) has measured pEC90 not below 4. Thanks!
Response: not fulfilled

Request: Hello, I need to know if "CC1(C)Oc2cccc(NC(=O)c3cccnc3Cl)c2O1" has measured pEC90 not below 4. Thanks!
Response: not fulfilled

Request: Hello, I need to know if "CCc1cccc(NC(=O)c2cccnc2Cl)c1" has measured pEC90 not below 4. Thanks!
Response: not fulfilled

Request: Hello, I need to know if CC1CCc2cccc(NC(=O)c3cccnc3Cl)c21 (stereo unspecified) has measured pEC90 not below 4. Thanks!
Response: fulfilled

Request: Hello, I need to know if "CCC1(CC)CCc2cccc(NC(=O)c3cccnc3Cl)c2O1" has measured pEC90 not below 4. Thanks!
Response: fulfilled
